Target: BRD4-BD1 (Homo sapiens (Human))
Test: BRD4 AlphaScreen Assay (Example A2), BRD4-BD1
Type: binding
Details: read-out: BRD4 BD-1 enzyme IC50
pIC50: −log10 of the molar value.
What pIC50 was measured for each of the following?

The molecule listed as Cc1noc(C)c1-c1ccc2[nH]c(=O)n3c2c1OCC3c1cccnc1C(=O)NCCO (single isomer, unassigned) [Example 135] shows pIC50 equal to > 7.00

The molecule listed as Cc1noc(C)c1-c1ccc2[nH]c(=O)n3c2c1OCC3c1cccnc1C(=O)NCC(F)(F)F (single isomer, unassigned) [Example 136] shows pIC50 equal to > 7.00

Origin of values: patent US10464947B2
